System: VMEC13
protocol.text: High throughput screening (HTPS), cell viability relative to vehicle
Assay type: cell-based, human
condition.details: 1 μM, 48 hours, rank 1 = most effective
Task for the reader: assign each of the following compounds its reported Ranking in HTPS for suppressing cell proliferation and growth.
Numbers only.

Name the recorded Ranking in HTPS for suppressing cell proliferation and growth for CCN(CC)C(=S)SSC(=S)N(CC)CC [Disulfiram] . 8

# return Ranking in HTPS for suppressing cell proliferation and growth for each item in the list
1. CO[C@H]1C[C@@H]2CC[C@@H](C)[C@@](O)(O2)C(=O)C(=O)N2CCCC[C@H]2C(=O)O[C@H]([C@H](C)C[C@@H]2CC[C@@H](O)[C@H](OC)C2)CC(=O)[C@H](C)/C=C(\C)[C@@H](O)[C@@H](OC)C(=O)[C@H](C)C[C@H](C)/C=C/C=C/C=C/1C [Sirolimus]
2. Cc1nc(NC(=O)N2CCC[C@H]2C(N)=O)sc1-c1ccnc(C(C)(C)C(F)(F)F)c1 [Alpelisib]
3. CC(=O)Nc1cccc(-n2c(=O)n(C3CC3)c(=O)c3c(Nc4ccc(I)cc4F)n(C)c(=O)c(C)c32)c1 [Trametinib]
4. CC(C)C[C@H](NC(=O)[C@@H](NC(=O)c1cccc(-c2ccccc2)n1)[C@@H](C)O)B(O)O [Delanzomib]
5. CC(C)C[C@H](NC(=O)CNC(=O)c1cc(Cl)ccc1Cl)B(O)O [Ixazomib]
6. CC(C)C[C@H](NC(=O)[C@H](CCc1ccccc1)NC(=O)CN1CCOCC1)C(=O)N[C@@H](Cc1ccccc1)C(=O)N[C@@H](CC(C)C)C(=O)[C@@]1(C)CO1 [Carfilzomib]

1: 118; 2: 107; 3: 79; 4: 2; 5: 8; 6: 1
